- target.of.assay: T1, monkey GPC3-His protein (monkey)
- T1 construct: Bought protein; also called monkey GPC3 protein
- assay.info: ELISA, monkey GPC3-His coated; antibody 0.056 nM
Short version: OD450 nm at least 0.7 is T, less is F.

binder: hAb006LH3L1e (antibody, human IgG1, V domains shown, Humanized F3.38.7, H3+L1e) VH: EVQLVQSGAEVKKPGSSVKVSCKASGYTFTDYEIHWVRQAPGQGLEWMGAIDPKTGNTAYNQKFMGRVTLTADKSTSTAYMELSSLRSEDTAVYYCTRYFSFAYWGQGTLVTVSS VL: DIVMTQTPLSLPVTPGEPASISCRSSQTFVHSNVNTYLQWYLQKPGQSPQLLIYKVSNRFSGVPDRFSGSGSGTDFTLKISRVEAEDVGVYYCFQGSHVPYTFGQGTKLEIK
class: F
--
binder: hAb007LH1L1d (antibody, human IgG1, V domains shown, Humanized F3.81.19, H1+L1d) VH: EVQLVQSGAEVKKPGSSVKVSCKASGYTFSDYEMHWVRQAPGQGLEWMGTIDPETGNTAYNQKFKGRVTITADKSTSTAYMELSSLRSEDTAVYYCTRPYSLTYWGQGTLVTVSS VL: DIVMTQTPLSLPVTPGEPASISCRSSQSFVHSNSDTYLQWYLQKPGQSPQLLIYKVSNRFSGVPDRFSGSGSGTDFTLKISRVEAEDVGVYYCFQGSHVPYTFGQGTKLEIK
class: F
--
binder: hAb006LH3L1c (antibody, human IgG1, V domains shown, Humanized F3.38.7, H3+L1c) VH: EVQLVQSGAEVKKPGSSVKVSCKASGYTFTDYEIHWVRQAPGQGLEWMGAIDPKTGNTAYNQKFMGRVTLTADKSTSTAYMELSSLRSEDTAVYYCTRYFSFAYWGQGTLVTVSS VL: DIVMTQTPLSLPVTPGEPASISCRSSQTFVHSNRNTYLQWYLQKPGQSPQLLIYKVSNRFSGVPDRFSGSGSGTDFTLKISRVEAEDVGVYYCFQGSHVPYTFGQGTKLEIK
class: T
--
binder: hAb007LH1L1e (antibody, human IgG1, V domains shown, Humanized F3.81.19, H1+L1e) VH: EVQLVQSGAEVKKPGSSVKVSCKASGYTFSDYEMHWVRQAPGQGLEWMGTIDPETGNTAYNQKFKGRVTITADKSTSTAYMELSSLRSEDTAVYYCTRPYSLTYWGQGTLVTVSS VL: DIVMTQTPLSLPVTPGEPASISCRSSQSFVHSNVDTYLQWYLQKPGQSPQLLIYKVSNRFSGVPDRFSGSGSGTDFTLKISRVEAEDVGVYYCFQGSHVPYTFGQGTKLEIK
class: F
--
binder: hAb007LH1L1c (antibody, human IgG1, V domains shown, Humanized F3.81.19, H1+L1c) VH: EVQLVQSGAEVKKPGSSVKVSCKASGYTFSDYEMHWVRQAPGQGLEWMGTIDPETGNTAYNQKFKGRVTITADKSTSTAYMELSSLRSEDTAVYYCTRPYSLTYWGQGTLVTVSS VL: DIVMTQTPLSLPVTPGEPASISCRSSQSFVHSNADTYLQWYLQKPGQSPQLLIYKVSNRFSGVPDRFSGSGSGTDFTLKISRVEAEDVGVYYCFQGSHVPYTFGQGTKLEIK
class: F

All values here come from patent US20260116991A1.
